Source listed as patent US20210246166A1.

Target: recombinant human MASP2 active protease (amino acids 297-686, C-terminal His Tag) (human, UniProt O00187 297-686)
Sequence (O00187 other isoform, or with tags, fused parts or gaps limits assumed): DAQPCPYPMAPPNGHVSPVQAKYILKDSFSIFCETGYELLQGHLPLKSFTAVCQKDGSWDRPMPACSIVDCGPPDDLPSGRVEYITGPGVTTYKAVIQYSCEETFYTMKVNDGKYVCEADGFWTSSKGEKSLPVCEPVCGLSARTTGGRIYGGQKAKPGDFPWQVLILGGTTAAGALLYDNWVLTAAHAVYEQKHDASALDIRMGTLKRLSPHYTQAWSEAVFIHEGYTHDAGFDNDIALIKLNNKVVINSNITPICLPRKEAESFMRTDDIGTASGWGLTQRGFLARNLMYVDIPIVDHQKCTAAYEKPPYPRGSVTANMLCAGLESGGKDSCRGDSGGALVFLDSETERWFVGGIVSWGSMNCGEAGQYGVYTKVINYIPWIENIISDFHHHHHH
Assay: cell-based or functional assay
Bridge positions count the residues as written; N and C are the ends. Square brackets hold non-standard residues; d marks the D form. Ends that are not written are not given here. Oic = O=C(O)[C@@H]1C[C@@H]2CCCC[C@@H]2N1; tBuAla = CC(C)(C)C[C@H](N)C(=O)O; Pen = CC(C)(S)[C@H](N)C(=O)O; Sar = CNCC(=O)O
REPORTED METRIC: human MASP2 IC50

Entry [Sar]ICSRSLP[Oic]I[Pen]IP[(2S)‑3‑(Triazol-1-yl)‑2‑(amino)propanoic acid]-NH2 (disulfide 3-11) [Example 437: ((N-Me)G)-IC+SRSLP-(Oic)-I-(Pen)+IP-((2S)-3-(Triazol-1-yl)-2-(amino)propanoic acid)-NH2] has what human MASP2 IC50?
76 nM

New cases:
Entry AICSRS[2‑Amino‑7‑(tert-butoxy)‑7‑oxoheptanoic acid]PPI[Pen]IPD-NH2 (disulfide 3-11) [Example 344: AIC+SRS-(2-Amino-7-(tert-butoxy)-7-oxoheptanoic acid)-PPI-(Pen)+IPD-NH2] has what human MASP2 IC50?
51 nM

Entry [Sar]PICSRS[tBuAla]PPI[Pen]IP-NH2 (disulfide 4-12; N-terminus assumed; SMILES CC[C@H](C)[C@H](NC(=O)[C@@H]1CCCN1C(=O)CNC)C(=O)N[C@H]1CSSC(C)(C)[C@@H](C(=O)N[C@H](C(=O)N2CCC[C@H]2C(N)=O)[C@@H](C)CC)NC(=O)[C@H]([C@@H](C)CC)NC(=O)[C@@H]2CCCN2C(=O)[C@@H]2CCCN2C(=O)[C@H](CC(C)(C)C)NC(=O)[C@H](CO)NC(=O)[C@H](CCCNC(=N)N)NC(=O)[C@H](CO)NC1=O) [Example 361: ((N-Me)G)-PIC+SRS-((tBu)A)-PPI-(Pen)+IP-NH2] has what human MASP2 IC50?
1000 nM
